stoichiometry N values, listed per item
target: the molecule itself; assay: SEC-MALS

{"protein": "Chlamydia trachomatis Serovar E native major outer membrane protein (nMOMP), from CHO suspension cells (natural protein) LPVGNPAEPSLMIDGILWEGFGGDPCDPCTTWCDAISMRMGYYGDFVFDRVLKTDVNKEFQMGDKPTSTTGNATAPTTLTARENPAYGRHMQDAEMFTNAACMALNIWDRFDVFCTLGASSGYLKGNSASFNLVGLFGDNENQSTVKTNSVPNMSLDQSVVELYTDTAFSWSVGARAALWECGCATLGASFQYAQSKPKVEELNVLCNAAEFTINKPKGYVGQEFPLALIAGTDAATGTKDASIDYHEWQASLALSYRLNMFTPYIGVKWSRASFDADTIRIAQPKSATAIFDTTTLNPTIAGAGDVKASAEGQLGDTMQIVSLQLNKMKSRKSCGIAVGTTIVDADKYAVTVETRLIDERAAHVNAQFRF", "stoichiometry N": 2.27}
{"protein": "Chlamydia trachomatis Serovar D native major outer membrane protein (nMOMP), from adherent HeLa 229 cells (natural protein) LPVGNPAEPSLMIDGILWEGFGGDPCDPCATWCDAISMRVGYYGDFVFDRVLKTDVNKEFQMGAKPTTDTGNSAAPSTLTARENPAYGRHMQDAEMFTNAACMALNIWDRFDVFCTLGATSGYLKGNSASFNLVGLFGDNENQKTVKAESVPNMSFDQSVVELYTDTTFAWSVGARAALWECGCATLGASFQYAQSKPKVEELNVLCNAAEFTINKPKGYVGKEFPLDLTAGTDAATGTKDASIDYHEWQASLALSYRLNMFTPYIGVKWSRASFDADTIRIAQPKSATAIFDTTTLNPTIAGAGDVKTGAEGQLGDTMQIVSLQLNKMKSRKSCGIAVGTTIVDADKYAVTVETRLIDERAAHVNAQFRF", "stoichiometry N": 2.8}
